target: Glycogen synthase kinase-3 beta (Homo sapiens) (UniProt P49841); details: Compound concentration 20.0 uM
Sequence (P49841 whole entry, looked up): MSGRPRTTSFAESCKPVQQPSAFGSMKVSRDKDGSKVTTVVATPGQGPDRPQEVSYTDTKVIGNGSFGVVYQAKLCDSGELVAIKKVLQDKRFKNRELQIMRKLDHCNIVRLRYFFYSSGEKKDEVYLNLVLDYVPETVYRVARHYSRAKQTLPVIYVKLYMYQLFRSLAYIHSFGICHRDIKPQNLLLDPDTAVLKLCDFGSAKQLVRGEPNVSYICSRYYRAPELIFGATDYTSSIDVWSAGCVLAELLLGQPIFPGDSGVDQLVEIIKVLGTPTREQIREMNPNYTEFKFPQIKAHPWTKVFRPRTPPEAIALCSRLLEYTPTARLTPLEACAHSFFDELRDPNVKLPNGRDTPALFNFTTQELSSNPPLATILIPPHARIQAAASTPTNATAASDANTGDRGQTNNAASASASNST
Description: Thermal Shift Assay. Domain: start/stop: M26-R383
Residues, ends and D or L forms follow the SMILES beside them.
Returns: string. Value is Fulfilled if measured ΔTm is below -0.7 °C, and Not fulfilled if it is greater than or equal to it.

Examples with answers:
compound	group-label
CC(=O)Nc1ccc(C(=O)Nc2ccc(F)cc2N)cc1	Fulfilled
Cc1cc(/N=N/c2ccc(S(=O)(=O)NC3CCCC3)cc2)c(N)cc1O	Not fulfilled
Cc1cc2cc(NS(=O)(=O)c3ccc(C#N)cc3)ccc2n(C)c1=O	Not fulfilled
CCS(=O)(=O)N1CC(CC#N)(n2cc(-c3ncnc4[nH]ccc34)cn2)C1	Not fulfilled
COc1cc2c(cc1OC)[C@H]1C[C@@H](OC(=O)[C@@H](N)C(C)C)[C@H](CC(C)C)CN1CC2	Fulfilled

API: query returns whether the compound falls strictly under -0.7 °C in ΔTm. Query: CC(=Cc1cc(C)ccc1C=C(C)C(=O)NC(=N)N)C(=O)N=C(N)N Not fulfilled

Next record, please: O=C1c2ccccc2C(=O)c2oc(-c3ccc(F)cc3)nc21 Not fulfilled

And what about the compound O=C(NO)c1ccc(CN(c2cnccn2)c2cnccn2)cc1 ? Fulfilled

Same for O=C1CCc2cc(OCCCCc3nnnn3C3CCCCC3)ccc2N1 Not fulfilled

Also, CC(=O)N1CCc2c(c(N3CCCc4cc(-c5cnn(C)c5)c(C(F)F)cc43)nn2C2CCOCC2)C1 please. Not fulfilled

Query CC(=O)N[C@@H](CC(C)C)C(=O)N[C@@H](CCC(=O)O)C(=O)N[C@H](C(=O)N[C@H](C=O)CC(=O)O)C(C)C (Ac-LEVD-aldehyde) next Fulfilled

Record: O=C(NO)c1cnc(NC2(c3ccccc3)CC2)nc1 Not fulfilled

Let us now turn to Cc1cc(C)c(CNC(=O)c2cc(-c3ccc(N4CCN(C)CC4)nc3)cc3c2c(C)cn3C(C)C)c(=O)[nH]1 Not fulfilled

Do the same for Cc1cc(C(=O)CN2CCCCC2)c(C)n1-c1ccc(Cl)cc1 please Not fulfilled

Next: Cc1cc(C(=O)N2CCN(C3CN(C(=O)c4ccc(-c5ccccc5)cc4)C3)CC2)no1 Not fulfilled

Try C[C@H]1CCCN1Cc1nc2cc(NC(=O)c3ccc4c(cnn4C)c3)ccc2[nH]1 next. Fulfilled

And what about the compound Cc1cccc(N/N=C(\C(=O)c2cccs2)C(=O)C(F)(F)F)c1 ? Fulfilled

What would you report for C=CCc1cccc(CNc2nc3ccccc3n2CCC)c1O ? Not fulfilled

Subsequent entry: NC(=O)C(CCCN=C(N)CCl)NC(=O)c1ccccc1 (configuration not stated) Not fulfilled

Quick one: CNc1nccc(CN([C@H]2CC[C@H](N)CC2)S(=O)(=O)c2ccc(S(=O)(=O)N(Cc3ccc(Cl)cc3)C3CCCC3)cc2)n1 Not fulfilled

Now the same for C[C@H](c1nc2c(cnn2C2CCOCC2)c(=O)[nH]1)N1CC(Oc2ccccc2)C1 Not fulfilled

Let us now turn to Cn1c(OC[C@H]2CC[C@H](C(F)(F)F)CC2)nn2c(C3CCOCC3)ncc2c1=O Not fulfilled

Try this compound too: O=C(N(CCc1ccccc1)C1CCCCC1)n1ncc(-c2ccc(OC(F)(F)F)cc2)n1 Fulfilled

Follow-up item: C[C@H](NC(=O)[C@H](Cc1ccccc1)NC(=O)OCc1ccccc1)C(=O)CF Not fulfilled

Thanks! And O=C(CCCCCCC(=O)Nc1ccc([C@H]2O[C@@H](CSc3nc(-c4ccccc4)c(-c4ccccc4)o3)C[C@@H](c3ccc(CO)cc3)O2)cc1)NO ? Not fulfilled
